- Test system: crabgrass
- PROTOCOL_SUMMARY: Test B pre/postemergence crabgrass
- Format: in vivo, Digitaria sanguinalis
- MEASUREMENT_SETUP: Preemergence, Rate 125 g/ha
RESULT_TYPE: Crabgrass plant response rating (0 to 10 scale)
Numbers only.

Below are worked cases with known answers.
> print(dat)
                                   compound  measured.result
1  CC(C)N(C(=O)n1oc(=O)n(CCC#N)c1=O)c1ccc(F)cc1 [Compound 388]                8
2  CC(C)N(C(=O)n1oc(=O)n(-c2ccc3ccccc3c2)c1=O)c1ccc(F)cc1 [Compound 329]                0
3  CCCCCCn1c(=O)on(C(=O)N(c2ccc(F)cc2)C(C)C)c1=O [Compound 389]                2

Your task in this section: give Crabgrass plant response rating (0 to 10 scale) for each listed record.
1. COC(Cn1c(=O)on(C(=O)N(c2ccc(F)cc2)C(C)C)c1=O)OC [Compound 317]
2. Cc1nsc(Cl)c1Cn1c(=O)on(C(=O)N(c2ccccc2)C(C)C)c1=O [Compound 374]

Solution:
1: 7; 2: 6
